Reference source for all entries: ChEMBL document CHEMBL1136065

Kindly state Increase for each of the entries shown.
- measured_target: Calcium-activated potassium channel subunit alpha-1 KCNMA1 (Mus musculus)
- assay_notes: Compound was tested for its effect on maxi-K-mediated outward current in Xenopus laevis oocytes expressing the cloned maxi-K channel mslo at a concentration of 20 uM
- measurement_setup: oocyte
Give bare numbers, in %.

Batch of 5 molecules: report Increase for each.
1. Oc1ccc(Cl)cc1-n1nc(-c2ccccc2C(F)(F)F)nc1O
2. Oc1ccc(Cl)cc1-n1nc(-c2ccc(C(F)(F)F)cc2C(F)(F)F)nc1O
3. O=c1[nH]c2cc(C(F)(F)F)ccc2n1-c1cc(Cl)ccc1O
4. Oc1ccc(Cl)cc1-n1nc(-c2cc(C(F)(F)F)cc(C(F)(F)F)c2)nc1O
5. Oc1ccc(Cl)cc1-n1nc(-c2ccc(C(F)(F)F)c(Cl)c2)nc1O

Result block:
[117.1, 175.5, 131.8, 154.2, 198.5]

Query block: I'd like to know its Increase. The molecule in question is `O=c1[nH]c(-c2ccc(C(F)(F)F)cc2)nn1-c1cc(Cl)ccc1O`
Result block: 196.8
